meta.source: PubChem BioAssay AID504832

- assayName: Primary qHTS for delayed death inhibitors of the malarial parasite plastid, 48 hour incubation
- measurementContext: P. falciparum luciferase growth in erythrocytes; series mostly up to 28.7 µM
- Source text: The goal of this screen is to discover new antimalarial compounds that act by inhibiting the development of the apicoplast in the malarial parasite Plasmodium falciparum. […] We have developed a cell-based assay that measures parasite growth based on the expression of an integrated copy of a firefly luciferase reporter. […] Growth inhibition is detected by a decrease in luciferase activity. […]
Out of some 310,000 compounds screened, about 18,000 (5.8%) were called active. Not shown: some 22% with an inconclusive outcome. The call rests on the fitted dose curve; in most records, active means well fitted inhibition curve with a large enough effect; inconclusive means small, poorly fitted or top-dose-only effect, or another doubt; inactive means no such curve, though single readings can be large or run the other way. This excerpt belongs to a sample that is enriched for actives.
Bench note: report the call from 1 (yes) = active, 0 (no) = inactive

Exercise: # fetch the recorded call for Cc1nc2ccccn2c(=O)c1NC(=O)c1cccs1 here
Key: 0 (no)

Exercise: # fetch the recorded call for CN(Cc1c(F)cccc1Cl)C(=O)CNC(=O)c1ccc2c(c1)OCO2 here
Key: 0 (no)

Exercise: # fetch the recorded call for O=C(Nc1cccc(Cl)c1)C1CCCN(c2cnccn2)C1 (stereo unspecified) here
Key: 0 (no)

Exercise: # fetch the recorded call for CC(=O)c1ccc(NC(=O)N[C@@H](Cc2ccccc2)C(=O)O)cc1 here
Key: 0 (no)

Exercise: # fetch the recorded call for O=C1C(=O)N(CCCN2CCOCC2)C(c2ccc([N+](=O)[O-])cc2)/C1=C(\O)c1ccc2c(c1)OCCO2 (stereo unspecified) here
Key: 0 (no)

Exercise: # fetch the recorded call for N#Cc1cccc(NC(=O)CN2CCCCCC2)c1 here
Key: 0 (no)

Exercise: # fetch the recorded call for Cc1ccccc1N1CCN(C2CCCN(C(=O)c3ocnc3C)C2)CC1 (stereo unspecified) here
Key: 0 (no)

Exercise: # fetch the recorded call for CC(=O)c1ccc(NC(=S)N(Cc2ccccc2)C(C)C2CC2)cc1 (stereo unspecified) here
Key: 1 (yes)

Exercise: # fetch the recorded call for CC(OC(=O)CCC(=O)c1ccccc1)C(=O)Nc1ccc(F)cc1 (stereo unspecified) here
Key: 0 (no)

Exercise: # fetch the recorded call for O=C(Nc1ccc(Sc2ccc(Br)cc2)cc1)c1ccco1 here
Key: 1 (yes)

Exercise: # fetch the recorded call for O=C(Nc1ccc(O)cc1)c1ccc(NC(=O)c2ccco2)cc1 here
Key: 0 (no)

---

- assayName: Primary qHTS for delayed death inhibitors of the malarial parasite plastid, 48 hour incubation
- measurementContext: P. falciparum luciferase growth in erythrocytes; series mostly up to 28.7 µM
About 18,000 (5.8%) of roughly 310,000 compounds were called active. Roughly 22% stayed inconclusive and do not appear here. Calls come from the whole dose curve; as a rule, active = well fitted inhibition curve with a large enough effect; inconclusive = small, poorly fitted or top-dose-only effect, or another doubt; inactive = no such curve, though single readings can be large or run the other way. Shown is part of a subset that was picked to be rich in actives.
Bench note: report the call from active, inactive

Exercise: # fetch the recorded call for CC1CCc2sc(C(=O)NCC(c3ccco3)N3CCCCC3)cc2C1 (stereo unspecified) here
Key: active

Exercise: # fetch the recorded call for COc1ccccc1CNC(=O)CSc1nc(=O)n(Cc2ccncc2)c2c1CCC2 here
Key: active

Exercise: # fetch the recorded call for COc1ccc(CNS(=O)(=O)c2ccc(-c3cnc(C4CC4)o3)cc2)cc1 here
Key: inactive

Exercise: # fetch the recorded call for O=C(NCCc1ccccc1)c1ccc2c(c1)N(Cc1ccccc1)CCS2 here
Key: inactive

Exercise: # fetch the recorded call for Cc1cccc(OCC(=O)NC2CC(C)(C)NC(C)(C)C2)c1 here
Key: inactive

Exercise: # fetch the recorded call for CCOC(=O)N1CCN(C(=O)c2ccc(S(=O)(=O)c3ccc(C)cc3)c(NC(C)=O)c2)CC1 here
Key: inactive

Exercise: # fetch the recorded call for COC(=O)CN(C(=S)Nc1ccc(Cl)cc1)C1CC(=O)N(c2ccc(OC)cc2)C1=O (stereo unspecified) here
Key: inactive

Exercise: # fetch the recorded call for CC1CCc2sc(C(=O)N/N=C/C3CCCCC3)cc2C1 (stereo unspecified) here
Key: inactive

Exercise: # fetch the recorded call for CCOC(=O)N1CCN(C(=O)c2ccc3c(c2)N(Cc2ccc(C)cc2)CCS3)CC1 here
Key: active

Exercise: # fetch the recorded call for CC(NC(=O)c1cccc(S(=O)(=O)N2CCc3ccccc3C2)c1)c1ccco1 (stereo unspecified) here
Key: inactive

Exercise: # fetch the recorded call for CC1Cc2ccccc2N1S(=O)(=O)c1ccc(Cl)nc1 (stereo unspecified) here
Key: inactive

Exercise: # fetch the recorded call for CC(C)CNS(=O)(=O)c1ccc(CCC(=O)NCc2ccc(Cl)cc2)cc1 here
Key: inactive

Exercise: # fetch the recorded call for CN(C)CCn1c2c(c(SCC(=O)NCc3ccccc3)nc1=O)CCC2 here
Key: inactive

Exercise: # fetch the recorded call for COc1ccc(C(CNC(=O)c2cc3c(s2)CCCC3)N2CCOCC2)cc1 (stereo unspecified) here
Key: inactive

Exercise: # fetch the recorded call for O=C(NCc1cc(F)cc(C(F)(F)F)c1)C1CCC(=O)N(C2CCCC2)C1 (stereo unspecified) here
Key: inactive

Exercise: # fetch the recorded call for CC1Cc2ccccc2N1S(=O)(=O)c1cccc(C(=O)NCC(c2ccco2)N2CCCC2)c1 (stereo unspecified) here
Key: active

Exercise: # fetch the recorded call for CC(C)(C)c1ccc(S(=O)(=O)N2CCN(C(=O)c3ccc4c(c3)C(=O)N(Cc3ccncc3)C4=O)CC2)cc1 here
Key: inactive

Exercise: # fetch the recorded call for CCC(=O)Nc1ccc2c(c1)nc(CCN1CCN(c3ccccn3)CC1)n2C here
Key: inactive

Exercise: # fetch the recorded call for Cc1cc(Nc2ccc(Br)cc2F)n2ncnc2n1 here
Key: inactive

Exercise: # fetch the recorded call for CCC(=O)Nc1ccc2c(c1)nc(CCN1CCN(C)CC1)n2C here
Key: inactive

Exercise: # fetch the recorded call for CCOc1ccc(N2C(=O)CC(N(CCc3ccc(OC)c(OC)c3)C(=S)Nc3ccccc3)C2=O)cc1 (stereo unspecified) here
Key: active
